- tested on: UniProtKB P19327
- Sequence (P19327 1-422): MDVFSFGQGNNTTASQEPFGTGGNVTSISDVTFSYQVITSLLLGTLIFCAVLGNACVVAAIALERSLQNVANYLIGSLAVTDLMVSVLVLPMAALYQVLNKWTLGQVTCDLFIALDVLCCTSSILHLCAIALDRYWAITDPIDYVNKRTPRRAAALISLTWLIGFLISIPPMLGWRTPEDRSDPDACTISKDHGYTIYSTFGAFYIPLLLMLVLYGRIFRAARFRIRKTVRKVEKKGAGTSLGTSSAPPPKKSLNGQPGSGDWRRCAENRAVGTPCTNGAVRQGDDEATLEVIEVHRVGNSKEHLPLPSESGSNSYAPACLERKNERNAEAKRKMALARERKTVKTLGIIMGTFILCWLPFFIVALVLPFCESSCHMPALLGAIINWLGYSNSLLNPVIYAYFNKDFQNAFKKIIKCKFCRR
- test: Flat body posture (FBP), agonist response and antagonism of 8-OH-DPAT
- Type: in vivo, male Wistar rats
- Design: from tissue; host or cells: whole animal, male Wistar rat (in vivo)
- recorded conditions: sc, induction of FBP, s.c., dose at which 50% of the animals show a response, read-out: Flat body posture ED50 (95% C.L.), agonist response
- Method: The tests were carried out on male Wistar rats weighing from 200 to 220 g which had free access to food and drinking water, in standard cages. The animals are housed individually for the hypothermia, corticosterone secretion and flat body posture tests, and in groups of three for the tail flick test. The laboratory temperature is kept at 21°±1° C., with 60 ±5% humidity. The rats are subjected to a light/dark cycle of 12 hours/12 hours (the light cycle commencing at 7.30 a.m.). […]

compound	ED50
c1ccc2c(c1)CC2CCN1CCN(c2cccc3c2OCCO3)CC1 (racemic) [Example 2]	> 20 mg/kg
c1ccc2c(c1)CC(CCN1CCN(c3cccc4c3OCCO4)CC1)C2 [Example 20]	> 2.5 mg/kg
c1ccc2c(c1)CC(CN1CCN(c3cccc4c3OCCO4)CC1)C2 [Example 14]	> 2.5 mg/kg
c1ccc2c(c1)CCC2CCN1CCN(c2cccc3c2OCCO3)CC1 (racemic) [Example 22]	> 10 mg/kg
O=C1CC2(CCCC2)CC(=O)N1CCCCN1CCN(c2ncccn2)CC1 [buspirone, reference compound]	7.4 mg/kg
c1ccc2c(c1)CCC2CCCN1CCN(c2cccc3c2OCCO3)CC1 (racemic) [Example 23]	10 mg/kg
c1ccc2c(c1)CC2CCCN1CCN(c2cccc3c2OCCO3)CC1 (racemic) [Example 13]	> 10 mg/kg
c1ccc2c(c1)CCC2CN1CCN(c2cccc3c2OCCO3)CC1 (racemic) [Example 15]	> 2.5 mg/kg
c1ccc2c(c1)CC2CN1CCN(c2cccc3c2OCCO3)CC1 (racemic) [Example 1]	> 10 mg/kg
c1ccc2c(c1)CC2CCN1CCN(c2cccc3c2OCCCO3)CC1 (racemic) [Example 3]	> 10 mg/kg
c1ccc2c(c1)CC(N1CCN(c3cccc4c3OCCCO4)CC1)C2 [Example 9]	> 2.5 mg/kg
c1ccc2c(c1)CC(N1CCN(c3cccc4c3OCCO4)CC1)C2 [Example 7]	> 10 mg/kg
